B1: ANKRD9 (parent)
chain: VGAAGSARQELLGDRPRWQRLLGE

# Variants of: B1
# test: protein stability index of a GFP-peptide fusion (GPS, HEK-293T) (PSI 1-6); higher = more stable;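 further: lentivirally expressed fusions sorted by FACS into six bins by GFP to DsRed ratio, PSI derived from sequencing read proportions per bin multiplied by bin number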
# conditionInfo: c terminus: a fixed tail appended
The variants listed here are annotated with their protein stability index.
Please give only the number in your answer, with no unit.

[[record]]
mutationlist = "G2D"
quantitativereadout = 3.32

[[record]]
mutationlist = "A3N"
quantitativereadout = 3.19

[[record]]
mutationlist = "Q19E"
quantitativereadout = 2.58

[[record]]
mutationlist = "L11I"
quantitativereadout = 3.3

[[record]]
mutationlist = "G5E"
quantitativereadout = 4.56


**Q:** Form field: reported protein stability index of A4L
**A:** 3.18

**Q:** Form field: reported protein stability index of A3P
**A:** 3.58

**Q:** Form field: reported protein stability index of L11V
**A:** 3.98
